# METHOD_DESCRIPTION: Inhibition of Naegleria fowleri CYP51 catalytic activity using [3-3H]sterol substrate measured after 1 hr by RP-HPLC analysis
ASSAY_READOUT: IC50
State the value, then name its unit.

Example molecules with recorded IC50:
>  <MOLECULE_SMILES>
O=C(N[C@@H](Cn1ccnc1)c1ccc(Cl)cc1Cl)c1ccc(-c2nnc(-c3ccc(F)c(F)c3)o2)cc1

>  <IC50>
1.28 µM

$$$$
>  <MOLECULE_SMILES>
O=C(N[C@@H](Cn1ccnc1)c1c(F)cc(-c2ccc(F)cc2)cc1F)c1ccc(-c2nnc(-c3ccccc3)o2)cc1

>  <IC50>
0.35 µM

$$$$
>  <MOLECULE_SMILES>
O=C(N[C@@H](Cn1ccnc1)c1ccc(-c2ccc(F)cc2)cc1F)c1ccc(-c2nnc(-c3ccccc3)o2)cc1

>  <IC50>
5.94 µM

$$$$

## Input For the molecule "O=C(N[C@@H](Cn1ccnc1)c1ccc(Cl)cc1Cl)c1ccc(-c2nnc(-c3ccc(C(F)(F)F)c(F)c3)o2)cc1" , what IC50 is on record?
## Output 0.93 µM
